Target: human TLR7 (Homo sapiens)
Sequence (Q9NYK1 27-1049): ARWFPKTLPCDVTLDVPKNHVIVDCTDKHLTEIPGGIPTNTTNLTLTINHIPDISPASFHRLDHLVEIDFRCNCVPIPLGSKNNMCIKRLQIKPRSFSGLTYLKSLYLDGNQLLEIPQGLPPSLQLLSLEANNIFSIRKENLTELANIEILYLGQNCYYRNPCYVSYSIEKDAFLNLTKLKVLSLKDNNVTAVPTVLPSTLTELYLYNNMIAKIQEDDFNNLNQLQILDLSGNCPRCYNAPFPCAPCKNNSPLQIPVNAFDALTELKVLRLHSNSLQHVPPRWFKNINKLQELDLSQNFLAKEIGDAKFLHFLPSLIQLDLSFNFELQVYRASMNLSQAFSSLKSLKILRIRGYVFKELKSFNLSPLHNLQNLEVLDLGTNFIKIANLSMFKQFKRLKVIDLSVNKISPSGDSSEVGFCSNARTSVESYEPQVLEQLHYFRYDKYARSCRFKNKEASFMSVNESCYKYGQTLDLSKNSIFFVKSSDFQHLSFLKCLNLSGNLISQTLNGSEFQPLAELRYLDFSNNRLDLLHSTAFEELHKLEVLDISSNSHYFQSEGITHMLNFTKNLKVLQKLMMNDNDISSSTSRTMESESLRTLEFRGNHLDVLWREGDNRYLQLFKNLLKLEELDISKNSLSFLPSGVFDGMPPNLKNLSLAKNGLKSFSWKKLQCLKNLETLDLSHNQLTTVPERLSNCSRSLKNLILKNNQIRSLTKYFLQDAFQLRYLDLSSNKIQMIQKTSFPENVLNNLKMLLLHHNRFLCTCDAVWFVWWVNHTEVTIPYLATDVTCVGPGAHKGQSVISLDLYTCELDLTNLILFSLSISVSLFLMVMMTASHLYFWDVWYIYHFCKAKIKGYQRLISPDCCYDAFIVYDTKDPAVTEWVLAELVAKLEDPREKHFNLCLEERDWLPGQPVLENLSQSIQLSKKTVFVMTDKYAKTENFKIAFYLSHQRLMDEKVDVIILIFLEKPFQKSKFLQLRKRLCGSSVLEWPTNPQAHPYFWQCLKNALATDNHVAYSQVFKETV
Assay: TLR7 inhibition reporter assay (HEK-Blue SEAP)
Conditions: HEK-Blue cells overexpressing human TLR7, stimulated with gardiquimod 7.5 μM, 22 hour incubation
recorded metric: IC50 (nM)

a = Cc1cc(-c2[nH]c3ccc(OCC(=O)N4CCCC5(CNC5)C4)cc3c2C(C)C)ccn1
b = Cc1c(-c2[nH]c3ccc(OC4CCN(C5COC5)CC4)cc3c2C(C)C)cn2cnnc2c1C
Between the entries labelled a and b , which has a larger IC50 value on record? # answer = label of selected item
a
(a: 629 nM, b: 26.3 nM)
